Catalogue of pIC50 values
Tested on: Pancreatic MIA PaCa-2
MEASUREMENT_NOTES: CellTiter Glo cell viability assay
Format: cell-based, human
STUDY_CONDITIONS: Homo sapiens, MIA PaCa-2, Table 5A: 11 dilutions 3-0.00001 μM; single experiments Exp E-K; read-out: IC50
pIC50: −log10 of the molar value.

Use the examples below as a reference point.
> print(dat)
                                item.smiles  result
1  COc1cc(/C=C/c2cc(O)cc(OC)c2CC=C(C)C)cc(O)c1O   ~6.00
2  COc1cc(/C=C/c2cc(O)cc(OC)c2CC=C(C)C)ccc1C(=O)O  < 5.52
3  CCOc1cc(O)cc(/C=C/c2ccc(O)c(NC=O)c2)c1CC=C(C)C  < 5.52

Form field, pIC50 with Pancreatic MIA PaCa-2, item COc1cc(/C=C/c2cc(O)cc(OC)c2CC=C(C)C)ccc1NC(=O)CN : 5.50

Form field, pIC50 with Pancreatic MIA PaCa-2, item CCCOc1cc(O)cc(/C=C/c2ccc(O)c(OC)c2)c1CC=C(C)C : 6.00 to 7.00

Form field, pIC50 with Pancreatic MIA PaCa-2, item C/C=C/Cc1c(/C=C/c2ccc(O)c(OC)c2)cc(O)cc1OC : 6.00 to 7.00

Form field, pIC50 with Pancreatic MIA PaCa-2, item C=CCc1c(/C=C/c2ccc(O)c(OC)c2)cc(O)cc1OC : 5.89

Form field, pIC50 with Pancreatic MIA PaCa-2, item COC(=O)CNc1ccc(/C=C/c2cc(O)cc(OC)c2CC=C(C)C)cc1OC : 5.69

Form field, pIC50 with Pancreatic MIA PaCa-2, item CCOc1cc(O)cc(/C=C/c2ccc(NC=O)c(O)c2)c1CC=C(C)C : < 5.52
